biological target: CDK7/cyclinH/MAT1 trimeric complex (Homo sapiens); assay: In vitro CDK7 assay, potency of irreversible covalent inhibitors (kinact/KI), coupled PK/LDH ADP readout at 340 nm; conditions: read-out: CDK7 (20 nM enz.) (kinact/KI, M^−1*s^−1), 20 nM enzyme
Sequence (P50613 whole entry): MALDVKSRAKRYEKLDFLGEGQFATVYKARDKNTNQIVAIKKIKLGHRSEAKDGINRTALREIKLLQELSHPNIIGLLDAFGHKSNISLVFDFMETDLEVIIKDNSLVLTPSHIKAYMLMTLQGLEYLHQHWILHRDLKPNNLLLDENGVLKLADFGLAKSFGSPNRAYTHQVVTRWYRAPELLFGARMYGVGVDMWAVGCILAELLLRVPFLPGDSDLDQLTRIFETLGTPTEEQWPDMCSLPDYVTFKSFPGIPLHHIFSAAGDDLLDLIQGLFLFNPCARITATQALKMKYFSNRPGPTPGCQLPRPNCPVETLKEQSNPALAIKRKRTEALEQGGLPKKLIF
Sequence (P51946 whole entry partner): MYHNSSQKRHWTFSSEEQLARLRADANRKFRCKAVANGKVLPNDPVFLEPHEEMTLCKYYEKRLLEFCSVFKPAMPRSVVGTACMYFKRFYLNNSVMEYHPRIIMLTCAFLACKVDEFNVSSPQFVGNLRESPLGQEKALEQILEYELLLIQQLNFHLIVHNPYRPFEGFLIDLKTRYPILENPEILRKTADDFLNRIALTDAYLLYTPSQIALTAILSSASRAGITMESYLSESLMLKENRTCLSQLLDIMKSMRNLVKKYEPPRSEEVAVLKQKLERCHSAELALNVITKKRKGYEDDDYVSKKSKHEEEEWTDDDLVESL
Sequence (P51948 whole entry partner): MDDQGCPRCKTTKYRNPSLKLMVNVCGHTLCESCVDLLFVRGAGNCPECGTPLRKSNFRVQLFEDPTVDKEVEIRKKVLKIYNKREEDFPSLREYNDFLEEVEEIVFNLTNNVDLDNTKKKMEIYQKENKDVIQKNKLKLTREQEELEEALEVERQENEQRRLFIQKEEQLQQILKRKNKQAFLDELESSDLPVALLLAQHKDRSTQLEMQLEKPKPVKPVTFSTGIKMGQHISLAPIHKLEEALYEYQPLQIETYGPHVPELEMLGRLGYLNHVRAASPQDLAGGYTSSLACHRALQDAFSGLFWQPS
MEASUREMENT LABEL: kinact/KI

INSERT INTO measurements (molecule, reported_result) VALUES
  ('C=CC(=O)N1CC[C@@H](N2CC(c3cc4c(c(C)n3)OCc3c(N5CCOCC5)ccnc3N4)C2)[C@H](F)C1 (mixture of isomers)', '240 M⁻¹ s⁻¹'),
  ('C=CC(=O)N1CC(N2CC[C@@H](c3cc4c(c(C)n3)OCc3c(N5CCOCC5)ccnc3N4)N(C)CC2)C1 (single isomer, unassigned)', '232 M⁻¹ s⁻¹'),
  ('CC#CC(=O)N1CC(N2CCC(c3cc4c(c(C5CC5)n3)OCc3c(C5CCOCC5)ccnc3N4)CC2)C1', '549 M⁻¹ s⁻¹'),
  ('C=CC(=O)N1CC[C@H](N2CC(c3cc(C)c4c(c3)Nc3nccc(C5CCOCC5)c3CO4)C2)C1 (single isomer, unassigned)', '581 M⁻¹ s⁻¹'),
  ('C=C(C(=O)N1CC[C@@H](N2CCC(c3cc4c(c(C)n3)OCc3c(-c5cnn(C)c5)ccnc3N4)CC2)C1)n1cccn1 (single isomer, unassigned)', '885 M⁻¹ s⁻¹'),
  ('C=CC(=O)N1CC[C@H](N2CCC(c3cc4c(c(C)n3)OCc3c(N5CCOCC5)ccnc3N4)CC2)C1 (single isomer, unassigned) [Compound 183]', '791 M⁻¹ s⁻¹');
